// provenance: ChEMBL document CHEMBL1131297

Biological target: Peroxisome proliferator-activated receptor gamma (Homo sapiens)
Sequence (P37231 whole entry): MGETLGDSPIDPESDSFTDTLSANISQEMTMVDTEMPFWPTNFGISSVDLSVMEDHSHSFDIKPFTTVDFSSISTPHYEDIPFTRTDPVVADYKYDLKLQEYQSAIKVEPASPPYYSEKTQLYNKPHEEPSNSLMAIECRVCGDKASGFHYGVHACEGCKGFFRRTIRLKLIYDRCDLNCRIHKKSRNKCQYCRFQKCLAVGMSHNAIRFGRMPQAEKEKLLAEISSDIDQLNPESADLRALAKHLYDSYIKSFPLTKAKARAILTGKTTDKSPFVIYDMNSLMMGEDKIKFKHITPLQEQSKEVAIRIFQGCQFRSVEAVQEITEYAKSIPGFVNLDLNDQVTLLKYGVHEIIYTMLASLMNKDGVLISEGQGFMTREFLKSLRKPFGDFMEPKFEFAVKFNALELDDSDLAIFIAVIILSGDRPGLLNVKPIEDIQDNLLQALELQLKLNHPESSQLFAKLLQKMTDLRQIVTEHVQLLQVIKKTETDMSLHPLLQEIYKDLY
Experiment: in vitro agonist activity against peroxisome proliferator activated receptor-gamma (PPAR-gamma), using alkaline phosphatase activity transactivator assay
Format: functional
OBSERVED_PROPERTY: EC50 (nM)

Illustrative cases are given below, each with its answer.
CN(CCOc1ccc(CC(Nc2ccncc2C(=O)c2ccccc2)C(=O)O)cc1)c1nc2ccccc2o1 (centres undefined)    9330
Cc1oc(-c2ccccc2)nc1CCOc1ccc(CC(Nc2ccccc2C(=O)c2ccc(CN(C)C)cc2)C(=O)O)cc1 (centres undefined)    407

1 = Cc1oc(-c2ccccc2)nc1CCOc1ccc(CC(Nc2ccccc2C(=O)c2cccc(CN(C)C)c2)C(=O)O)cc1 (centres undefined)
2 = Cc1cccc(C(=O)c2ccccc2NC(Cc2ccc(OCCN(C)c3nc4ccccc4o3)cc2)C(=O)O)c1 (centres undefined)
Sorting ascending by EC50, which comes first: 1 or 2 ? I would appreciate it if you answered with the label of your choice.
2
